This collection of values is drawn from ChEMBL document CHEMBL4513216.

test system: Plasmodium berghei; assay: Screen against P. berghei liver stage (PbLuc), transformed with Luciferase, at 10uM; format: functional, HepG2; conditions: tested at 10 uM
The campaign covered roughly 69,000 compounds. About 8,600 (12%) showed an effect of 50% or more. This excerpt belongs to a sample that is enriched for strong results.
Class criterion met: INHIBITION at least 40%. Class criterion not met: INHIBITION below 40%.

Sample answers from the record:
| molecule | group-label |
| --- | --- |
| CN1CCN(C2CCN(CCOc3ccc(C#N)cc3)CC2)C1=O | criterion met |
| CCn1cnnc1CNC(=O)N1CCN(C(C)C)CC1 | criterion not met |

Kindly determine if INHIBITION recorded for `O=C(Nc1ccc(F)cc1)N1C[C@@H]2C[C@H](C(=O)N3CCOCC3)[C@H](C1)O2` is above or exactly 40%. criterion not met

Kindly determine if INHIBITION recorded for `CC(C)CS(=O)(=O)N1C[C@@H]2C[C@H](C(=O)N3CCN(C)CC3)[C@H](C1)O2` is above or exactly 40%. criterion not met

Kindly determine if INHIBITION recorded for Cc1ccccc1CN1CCC(c2nn(CCN)c3nccnc23)C1 (stereo not given) is above or exactly 40%. criterion met

Kindly determine if INHIBITION recorded for `CS(=O)(=O)N1CC[C@]2(O)CCN(c3cc(C#N)ccn3)C[C@@H]2C1` is above or exactly 40%. criterion met

Kindly determine if INHIBITION recorded for `O=C(Nc1ccccc1)N1C[C@@H]2C[C@H](C(=O)N3CCCC3)[C@H](C1)O2` is above or exactly 40%. criterion not met

Kindly determine if INHIBITION recorded for COCc1nc(C(=O)N2CCCC2c2cccs2)cs1 (stereo not given) is above or exactly 40%. criterion met

Kindly determine if INHIBITION recorded for O=C(NCC1CCCN(C(=O)NCCc2ccccc2)C1)c1ccco1 (stereo not given) is above or exactly 40%. criterion met

Kindly determine if INHIBITION recorded for CCOC(=O)CNC(=O)N1CCCC(CNC(=O)c2ccco2)C1 (stereo not given) is above or exactly 40%. criterion not met

Kindly determine if INHIBITION recorded for `CN1CCN(C2CCN(CCOc3cccc(F)c3)CC2)C1=O` is above or exactly 40%. criterion not met

Kindly determine if INHIBITION recorded for `CN1CCN(C2CCN(CCOc3ccc(F)cc3)CC2)C1=O` is above or exactly 40%. criterion not met

Kindly determine if INHIBITION recorded for CCn1cc(NC(=O)NC(CO)Cc2c[nH]c3ccccc23)cn1 (stereo not given) is above or exactly 40%. criterion not met

Kindly determine if INHIBITION recorded for CC(C)(C)CC(=O)N1CCC(c2nn(CCN)c3nccnc23)C1 (stereo not given) is above or exactly 40%. criterion not met

---

Quick list: INHIBITION per entry.
tested on: Plasmodium berghei; assay: Screen against P. berghei liver stage (PbLuc), transformed with Luciferase, at 10uM; format: functional, HepG2; settings: tested at 10 uM
Out of some 69,000 compounds screened, about 8,600 (12%) showed an effect of 50% or more. Only a selection was taken, and strong results are over-represented in it overall.
Enter your answer as a number in %; do not include the unit.

Here is how some molecules turned out for INHIBITION.
| molecule | INHIBITION [%] |
| --- | --- |
| Cc1nnc2n1CCN(Cc1csc(CC(=O)N(C)C)n1)C2 | 16.7 |
| CC(Cn1ccnc1)NC(=O)Nc1ccccn1 (stereo not given) | 29.95 |
| CC(=O)c1cccc(OCCCC(=O)N(C)CCc2ccncc2)c1 | -8.19 |
| COc1cccc(SCCCn2cnc3c(N)ncnc32)c1 | 52.1 |
| CC(C)(C)CCCC(=O)Nc1ccnn1C1CCS(=O)(=O)C1 (stereo not given) | 46.6 |
| Cc1ccc(CN2CC[C@H]3OCC[C@@H](C(=O)NCC4CC4)[C@@H]3C2)s1 | 5.96 |

// fetch INHIBITION given entry `COc1ccc(OCCN(C)CCCn2cnc3c(N)ncnc32)cc1` 10.6

// fetch INHIBITION given entry `CC(C)c1nnc2n1CCN(Cc1csc(CC(=O)N(C)C)n1)C2` 52

// fetch INHIBITION given entry `COc1ccc2cccc(CC(=O)NCCCc3n[nH]c(C)n3)c2c1` -6.97

// fetch INHIBITION given entry OCc1cc(C2CCCN2c2ncccn2)n[nH]1 (stereo not given) 12.27

// fetch INHIBITION given entry Cc1n[nH]c(C2CN(CC(=O)NCc3cccs3)CCO2)n1 (stereo not given) 8.9

---

system: Plasmodium berghei; assay: Screen against P. berghei liver stage (PbLuc), transformed with Luciferase, at 10uM; format: functional, HepG2; conditions: tested at 10 uM
Out of some 69,000 compounds screened, about 8,600 (12%) showed an effect of 50% or more. For the sample, strong results were picked, then their nearest neighbours and some compounds at random.
Quick list: INHIBITION per entry.
Enter your answer as a number in %; do not include the unit.

Here is how some compounds turned out for INHIBITION.
| compound | INHIBITION (%) |
| --- | --- |
| O=C(c1cnccn1)N1CCC(F)(F)C2(CCN(c3ccccn3)C2)C1 (stereo unspecified) | 12.1 |
| CN1CCC(NCC(O)c2cccc(OCc3ccccc3)c2)CC1 (stereo unspecified) | 14.9 |

// fetch INHIBITION given entry Cc1n[nH]c(C)c1CCNC(=O)C1CCCN(CC(N)=O)C1 (stereo unspecified) 74.4

// fetch INHIBITION given entry Cc1noc(C)c1C[S+]([O-])Cc1cn2cccc(C)c2n1 (stereo unspecified) -41.7

---

test system: Plasmodium berghei; test: Screen against P. berghei liver stage (PbLuc), transformed with Luciferase, at 10uM; assay type: functional, HepG2; conditions: tested at 10 uM
In all, about 69,000 compounds went through this assay and about 8,600 (12%) showed an effect of 50% or more. Shown is part of a subset that was picked to be rich in strong results.
With a cut-off of 30%, any INHIBITION strictly below it is called MET; any INHIBITION meeting it or above is called NOT MET.

Sample answers from the record:
| compound | group-label |
| --- | --- |
| Cc1nc2[nH]cnc(Nc3ccn(C)n3)c-2n1 | MET |
| Cc1csc(CNC(=O)Nc2ccc3c(c2)OCO3)n1 | MET |
| CCS(=O)(=O)N1CCc2nc(N3CCOCC3)nc(N(C)C)c2CC1 | NOT MET |
| Cc1cc(C)nc(N2CCN(C(=O)c3ccc(C4CCCO4)s3)CC2)n1 (configuration not stated) | NOT MET |
| O=C(COCCOc1ccccc1)N1CCCC(n2ccnc2)C1 (configuration not stated) | MET |
| CCCOc1cccc(-c2nc3c([nH]2)CCNC3)c1 | MET |
| Cc1ccc(C(=O)N2CCC3(CC2)CCN(CCN(C)C)C3=O)cn1 | MET |
| O=C(c1ccc(C2CCCO2)s1)N1CCN(c2ccccc2F)CC1 (configuration not stated) | NOT MET |
| CC(C)n1c(=O)[nH]c2cn(-c3ccc(Br)cc3)c(=O)n21 | MET |
| O=C(CCC(=O)N1CCc2[nH]c3ccccc3c2C1)NCc1ccco1 | MET |

I wonder whether O=C(NC1CCCN(CCc2ccccc2)C1)c1cnccn1 (configuration not stated) has INHIBITION below 30%. Can you tell? MET

I wonder whether `CCCOc1cccc(OCc2ccon2)c1` has INHIBITION below 30%. Can you tell? NOT MET

I wonder whether `CN(C)CCN1C(=O)CC[C@@H]2[C@H]1CCN2Cc1cccc(C#N)c1` has INHIBITION below 30%. Can you tell? NOT MET

I wonder whether O=C(NCC(F)F)c1cnc(C2CCCN2)cn1 (configuration not stated) has INHIBITION below 30%. Can you tell? NOT MET

I wonder whether `Cc1ccc(C(=O)N2CC[C@@H]3[C@H]2CCC(=O)N3CCN(C)C)cn1` has INHIBITION below 30%. Can you tell? NOT MET

I wonder whether `Cc1ccc2c(n1)N(CCn1cccn1)CCN(C(=O)NC(C)C)C2` has INHIBITION below 30%. Can you tell? MET

I wonder whether `Cc1nc(CN2CCN(c3cncc(Cl)n3)CC2)no1` has INHIBITION below 30%. Can you tell? MET

I wonder whether COc1ccc2c(c1)C(=O)NC1(CC2)CCN(Cc2ccccn2)C1 (configuration not stated) has INHIBITION below 30%. Can you tell? MET

I wonder whether `COc1ccccc1-c1ncc(CN2CCC3(CCN(C)C3)CC2)cn1` has INHIBITION below 30%. Can you tell? MET

I wonder whether CC(C)N1CCC(Cc2cncc(-c3cccc(C(=O)O)c3)n2)C1 (configuration not stated) has INHIBITION below 30%. Can you tell? MET

I wonder whether O=S(=O)(NCC1CCCN(Cc2ccccc2F)C1)C1CC1 (configuration not stated) has INHIBITION below 30%. Can you tell? MET

I wonder whether O=C(c1ccc(C2CCCO2)s1)N1CCOCC1 (configuration not stated) has INHIBITION below 30%. Can you tell? MET

I wonder whether CCC1CN(C(=O)c2cccc(OCc3cscn3)c2)CCO1 (configuration not stated) has INHIBITION below 30%. Can you tell? NOT MET

I wonder whether Cc1cccc(NC(=O)c2cnc(C3CCCNC3)cn2)n1 (configuration not stated) has INHIBITION below 30%. Can you tell? MET

I wonder whether `CN(CCc1noc(C2CC2)n1)C(=O)CN1C(=O)COc2ccccc21` has INHIBITION below 30%. Can you tell? MET

I wonder whether `COc1ccc(C(N)=O)cc1NCc1nc(-c2cccs2)oc1C` has INHIBITION below 30%. Can you tell? NOT MET

I wonder whether Cc1nc(C)n(CC2CCCN(Cc3cccc(F)c3F)C2)n1 (configuration not stated) has INHIBITION below 30%. Can you tell? NOT MET

I wonder whether COc1cc(C)c(C(C)NC(=O)NCCCn2cncn2)cc1OC (configuration not stated) has INHIBITION below 30%. Can you tell? MET

I wonder whether `O=S(=O)(C1CC1)N1CCO[C@H]2[C@@H](Oc3cccnc3)CC[C@@H]21` has INHIBITION below 30%. Can you tell? NOT MET

I wonder whether CC(C)OCCC(=O)NCC(O)c1c(Cl)cccc1Cl (configuration not stated) has INHIBITION below 30%. Can you tell? MET
